Give measured pIC50 for each item. Keep answers brief.
test system: Staphylococcus aureus MW2 delta-mecA (mecA-); assay: IC50 (growth, competition assay); settings: fluorescent label: DsRed; cefoxitin: subinhibitory
pIC50: −log10 of the molar value.

INPUT: Look up pIC50: O=C(Nc1ccc([N+](=O)[O-])cc1Cl)c1cc(Cl)ccc1O [Niclosamide]
OUTPUT: > 5.01

INPUT: Look up pIC50: Cc1ccc(S(=O)(=O)C=CC#N)cc1 [BAY 11-7082 (BAY 11-7821)]
OUTPUT: > 5.01

INPUT: Look up pIC50: COc1c(N2CCNC(C)C2)c(F)cc2c(=O)c(C(=O)O)cn(C3CC3)c12 (centres undefined)
OUTPUT: > 5.01

INPUT: Look up pIC50: CC(=O)OCC1=C(C(=O)O)N2C(=O)[C@@H](NC(=O)CSc3ccncc3)[C@H]2SC1
OUTPUT: > 5.01

INPUT: Look up pIC50: COC(=O)[C@@]1(C)CCC[C@]2(C)c3ccc(O)c(C(C)C)c3CCC12 (some centres undefined)
OUTPUT: 4.18

INPUT: Look up pIC50: CSc1nc2cc(Cl)c(Oc3cccc(Cl)c3Cl)cc2[nH]1
OUTPUT: > 5.01

INPUT: Look up pIC50: NC(N)=NC(=O)c1nc(Cl)c(N2CCCCCC2)nc1N [5-(N,N-hexamethylene)amiloride]
OUTPUT: 4.34

INPUT: Look up pIC50: O=C(Nc1ccc([N+](=O)[O-])cc1Cl)c1cc(Cl)ccc1O [NICLOSIDE]
OUTPUT: > 5.01

INPUT: Look up pIC50: CCc1oc2ccccc2c1C(=O)c1cc(Br)c(O)c(Br)c1
OUTPUT: > 5.01

---

system: Staphylococcus aureus MW2 delta-mecA (mecA-); experiment: IC50 (growth, competition assay); details: fluorescent label: DsRed; cefoxitin: subinhibitory
pIC50: −log10 of the molar value. Counter-ions that a name gives are not always drawn.
valueType: pIC50

INPUT: Look up pIC50: COC(=O)C1=C(C)NC(C)=C(C(=O)OCCCN2CCC(c3ccccc3)(c3ccccc3)CC2)[C@H]1c1cccc([N+](=O)[O-])c1 [S-(+)-Niguldipine hydrochloride]
OUTPUT: > 5.01

INPUT: Look up pIC50: CCn1cc(C(=O)O)c(=O)c2cc(F)c(N3CCNCC3)nc21 [PENETREX]
OUTPUT: > 5.01

INPUT: Look up pIC50: NCc1ccccc1CC(=O)N[C@@H]1C(=O)N2C(C(=O)O)=C(CSc3nnnn3CC(=O)O)CS[C@H]12 [PRECEF]
OUTPUT: > 5.01

INPUT: Look up pIC50: COc1cccc(OC)c1C(=O)N[C@@H]1C(=O)N2[C@@H]1SC(C)(C)[C@@H]2C(=O)O [STAPHCILLIN]
OUTPUT: > 5.01

INPUT: Look up pIC50: N#Cc1c(Cl)c(Cl)c(Cl)c(C#N)c1Cl [CHLOROTHALONIL]
OUTPUT: > 5.01

INPUT: Look up pIC50: COc1ncc(-c2ccc3nccc(-c4ccnnc4)c3c2)cc1NS(=O)(=O)c1ccc(F)cc1F
OUTPUT: > 5.01

INPUT: Look up pIC50: CCN1CCN(C(=O)N[C@@H](C(=O)N[C@@H]2C(=O)N3C(C(=O)O)=C(CSc4nnnn4C)CS[C@H]23)c2ccc(O)cc2)C(=O)C1=O [CEFOBID]
OUTPUT: > 5.01

---

tested on: Staphylococcus aureus MW2 (mecA+); test: IC50 (growth, competition assay); conditions: fluorescent label: DsRed; cefoxitin: subinhibitory
Structures can show the parent of a compound that is named as a salt.
Give measured pIC50 for each item. Keep answers brief.
FYI, pIC50 means -log10 of a concentration in mol per litre.

INPUT: Look up pIC50: C[C@@H](NCCCc1cccc(C(F)(F)F)c1)c1cccc2ccccc12 [AMG-073 HCl (Cinacalcet hydrochloride)]
OUTPUT: 4.31

INPUT: Look up pIC50: Cc1cc(N)c2ccccc2[n+]1CCCCCCCCCC[n+]1c(C)cc(N)c2ccccc21 [FLUOMIZIN]
OUTPUT: 4.88

INPUT: Look up pIC50: C/C=C(/C(=C/C)c1ccc(O)cc1)c1ccc(O)cc1 [ESTRAGUARD]
OUTPUT: 4.51

INPUT: Look up pIC50: N[C@@H](C(=O)N[C@@H]1C(=O)N2C(C(=O)O)=C(Cl)CS[C@H]12)c1ccccc1 [CECLOR]
OUTPUT: 4.06

INPUT: Look up pIC50: O=C(O[C@@H]1Cc2c(O)cc(O)cc2O[C@@H]1c1cc(O)c(O)c(O)c1)c1cc(O)c(O)c(O)c1 [EPIGALLOCATECHIN-3-MONOGALLATE]
OUTPUT: 4.34

---

system: Staphylococcus aureus MW2 (mecA+); experiment: IC50 (growth, competition assay); conditions: fluorescent label: DsRed; cefoxitin: subinhibitory
Structures can show the parent of a compound that is named as a salt.
valueType: pIC50
FYI, pIC50 means -log10 of a concentration in mol per litre.

INPUT: Look up pIC50: CC/C(=C(\c1ccccc1)c1ccc(OCCN(C)C)cc1)c1ccccc1 [Tamoxifen citrate]
OUTPUT: 4.83

INPUT: Look up pIC50: O=C(O)c1ccc(N2C(=O)/C(=C\c3ccc(-c4ccc([N+](=O)[O-])cc4)o3)C=C2c2ccccc2)cc1 [4E1RCat]
OUTPUT: 4.26

INPUT: Look up pIC50: CCn1cnc2c(Nc3cccc(Cl)c3)nc(N[C@@H]3CCCC[C@@H]3N)nc21
OUTPUT: 4.18

---

system: Staphylococcus aureus MW2 delta-mecA (mecA-); assay: IC50 (growth, competition assay); settings: fluorescent label: DsRed; cefoxitin: subinhibitory
pIC50: −log10 of the molar value.
Give measured pIC50 for each item. Keep answers brief.

INPUT: Look up pIC50: CC(=O)Oc1ccccc1C(=O)Nc1ncc([N+](=O)[O-])s1 [Nitazoxanide (Alinia, Annita)]
OUTPUT: 4.66

INPUT: Look up pIC50: C=CC(C1=CC(=O)C(OC)=CC1=O)c1ccccc1 (centres undefined) [4-METHOXYDALBERGIONE]
OUTPUT: > 5.01

INPUT: Look up pIC50: Cc1ccc(S(=O)(=O)c2ccc([N+](=O)[O-])o2)cc1
OUTPUT: > 5.01

INPUT: Look up pIC50: CC1COc2c(N3CCN(C)CC3)c(F)cc3c(=O)c(C(=O)O)cn1c23 (centres undefined) [FLOXIN]
OUTPUT: > 5.01

INPUT: Look up pIC50: Nc1nc(/C(=C/CC(=O)O)C(=O)N[C@@H]2C(=O)N3C(C(=O)O)=CCS[C@H]23)cs1 [CEDAX]
OUTPUT: > 5.01

INPUT: Look up pIC50: CNCCCC12CCC(c3ccccc31)c1ccccc12 [LUDIOLMIL]
OUTPUT: 4.51

INPUT: Look up pIC50: CN1CCN(CCCN2c3ccccc3Sc3ccc(Cl)cc32)CC1 [Prochlorperazine dimaleate]
OUTPUT: 4.67

INPUT: Look up pIC50: C[C@H](Cc1ccc(O)c(O)c1)[C@@H](C)Cc1ccc(O)c(O)c1
OUTPUT: > 5.01

INPUT: Look up pIC50: OC1(c2ccc(Cl)c(C(F)(F)F)c2)CCN(CCCC(c2ccc(F)cc2)c2ccc(F)cc2)CC1 [SEMAP]
OUTPUT: > 5.01

---

test system: Staphylococcus aureus MW2 delta-mecA (mecA-); experiment: IC50 (growth, competition assay); details: fluorescent label: DsRed; cefoxitin: subinhibitory
Counter-ions that a name gives are not always drawn.
valueType: pIC50
FYI, pIC50 means -log10 of a concentration in mol per litre.

INPUT: Look up pIC50: NC(=O)c1cnccn1 [TEBRAZID]
OUTPUT: 4.74

INPUT: Look up pIC50: CN[C@H]1CC[C@@H](c2ccc(Cl)c(Cl)c2)c2ccccc21 [Sertraline HCl]
OUTPUT: 4.92

INPUT: Look up pIC50: O=C(N/N=C/c1ccc([N+](=O)[O-])o1)c1ccc(O)cc1 [NIFUROXAZIDE]
OUTPUT: 4.34

INPUT: Look up pIC50: O=C(/C=C/c1ccccc1)c1ccc(O)cc1 [4'-HYDROXYCHALCONE]
OUTPUT: 4.71

INPUT: Look up pIC50: CN1CCN(CCCN2c3ccccc3Sc3ccc(C(F)(F)F)cc32)CC1 [Trifluoperazine dihydrochloride]
OUTPUT: 4.80

INPUT: Look up pIC50: C[C@H]1[C@H](C)CC[C@]2(C(=O)O)CC[C@]3(C)C(=CC[C@@H]4[C@@]5(C)C[C@@H](O)[C@H](O)[C@@](C)(CO)[C@@H]5[C@H](O)C[C@]43C)[C@H]12 [MADECASSIC ACID]
OUTPUT: 4.32

INPUT: Look up pIC50: CCCCCCCCNC(C)C(O)c1ccc(SC(C)C)cc1 (stereo not given) [SULOCTIDIL]
OUTPUT: 4.76

INPUT: Look up pIC50: NC[C@@H]1O[C@H](C23CC4CC(CC(C4)C2)C3)Cc2c1ccc(O)c2O
OUTPUT: 4.46

INPUT: Look up pIC50: O=C(/C=C/c1ccccc1)c1ccc(O)cc1O [2',4'-DIHYDROXYCHALCONE]
OUTPUT: 4.73

INPUT: Look up pIC50: CN1CCN(c2c(F)cc3c(=O)c(C(=O)O)cn4c3c2OCN4C)CC1 [Marbofloxacin]
OUTPUT: 5.68

INPUT: Look up pIC50: CC(C)c1c(O)ccc2c1CC[C@H]1[C@@](C)(CO)CCC[C@]21C [19-HYDROXYTOTAROL]
OUTPUT: 3.97

INPUT: Look up pIC50: CCOc1nc2cccc(C(=O)OCc3oc(=O)oc3C)c2n1Cc1ccc(-c2ccccc2-c2noc(=O)[nH]2)cc1 [EDARBI]
OUTPUT: 4.89

INPUT: Look up pIC50: COc1cccc2c1[C@@H]1CN(CCCCn3c(=O)[nH]c4c(sc5ncc(-c6ccccc6)nc54)c3=O)C[C@@H]1CO2 [Fiduxosin hydrochloride]
OUTPUT: 4.98
